# TARGET_SYSTEM: Bifunctional dihydrofolate reductase-thymidylate synthase (Toxoplasma gondii, UniProt Q07422)
# Sequence (Q07422 whole entry): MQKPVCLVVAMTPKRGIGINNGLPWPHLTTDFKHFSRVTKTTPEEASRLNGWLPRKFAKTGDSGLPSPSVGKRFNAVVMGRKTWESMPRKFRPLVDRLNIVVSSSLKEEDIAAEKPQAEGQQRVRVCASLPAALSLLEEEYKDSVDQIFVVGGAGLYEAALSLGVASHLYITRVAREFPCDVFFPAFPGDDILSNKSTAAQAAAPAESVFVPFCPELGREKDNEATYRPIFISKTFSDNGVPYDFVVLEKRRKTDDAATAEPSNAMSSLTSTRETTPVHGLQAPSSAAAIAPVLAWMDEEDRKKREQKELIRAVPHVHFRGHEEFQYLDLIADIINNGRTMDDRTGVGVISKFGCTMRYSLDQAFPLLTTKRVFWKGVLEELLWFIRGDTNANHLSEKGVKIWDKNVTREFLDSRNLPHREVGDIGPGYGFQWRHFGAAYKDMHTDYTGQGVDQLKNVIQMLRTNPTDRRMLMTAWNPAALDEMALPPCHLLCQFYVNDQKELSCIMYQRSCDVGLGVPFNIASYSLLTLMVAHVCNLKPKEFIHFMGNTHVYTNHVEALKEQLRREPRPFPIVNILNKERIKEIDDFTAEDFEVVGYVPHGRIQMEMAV
# PROCEDURE_TEXT: Inhibitory activity against Dihydrofolate reductase from Toxoplasma gondii was evaluated using 90 uM dihydrofolic acid as substrate
PROPERTY: IC50 (nM)
Report only the number, with the unit nM understood.

CCc1nc(N)nc(N)c1-c1ccc(N(C)Cc2ccc(C3=NC(C)(C)CO3)cc2)c([N+](=O)[O-])c1 | 14
CCc1nc(N)nc(N)c1-c1ccc(NCc2ccc(C(N)=O)cc2)c([N+](=O)[O-])c1 | 3.7
CCc1nc(N)nc(N)c1-c1ccc(NCc2ccc(C(=O)NC(CCC(=O)O)C(=O)O)cc2)c([N+](=O)[O-])c1 (stereo not drawn) | 6.2
CCc1nc(N)nc(N)c1-c1ccc(NCc2ccccc2)c([N+](=O)[O-])c1 | 19
CCc1nc(N)nc(N)c1-c1ccc(NCc2ccc(C(=O)N(C)C)cc2)c([N+](=O)[O-])c1 | 7.9
CCOC(=O)CCC(NC(=O)c1ccc(CNc2ccc(-c3c(N)nc(N)nc3CC)cc2[N+](=O)[O-])cc1)C(=O)OCC (stereo not drawn) | 7.1
CCc1nc(N)nc(N)c1-c1ccc(NCc2ccc(S(N)(=O)=O)cc2)c([N+](=O)[O-])c1 | 5.8
CCc1nc(N)nc(N)c1-c1ccc(NCc2ccc(C(=O)N3CCCCC3)cc2)c([N+](=O)[O-])c1 | 140
CCc1nc(N)nc(N)c1-c1ccc(N(C)Cc2ccc(C(=O)O)cc2)c([N+](=O)[O-])c1 | 3.1
CCc1nc(N)nc(N)c1-c1ccc(NCc2ccc(C(=O)NC)cc2)c([N+](=O)[O-])c1 | 4.3

Q: Recorded IC50 for `CCc1nc(N)nc(N)c1-c1ccc(NCc2ccc(C(=O)O)cc2)c([N+](=O)[O-])c1` , please?
Result: 1.8

Q: Recorded IC50 for `CCc1nc(N)nc(N)c1-c1ccc(NCc2ccc(C3OCCO3)cc2)c([N+](=O)[O-])c1` , please?
Result: 15

Q: Recorded IC50 for `CCc1nc(N)nc(N)c1-c1ccc(N(C)Cc2ccc(C(=O)NC)cc2)c([N+](=O)[O-])c1` , please?
Result: 7.4

Reference source: ChEMBL document CHEMBL1130351
